EXPERIMENT_NOTES: physchem
CONDITION_DETAILS: pH 7.4, aqueous buffer, Conc (mg/mL)
OBSERVABLE: solubility (µg/mL)
One number for each entry, in µg/mL.

Inquiry: For the compound `COCCOCCOCCNC(=O)/C(C#N)=C/c1ccc2cc(N3CCCCC3)ccc2c1` , what solubility is on record?
Reply text: 7.4

* * *

EXPERIMENT_NOTES: physchem
CONDITION_DETAILS: aqueous with cosolvent or surfactant or cyclodextrin, solubility in surfactants
OBSERVABLE: solubility

Inquiry: Sample `COCCOCCOCCNC(=O)/C(C#N)=C/c1ccc2cc(N3CCCCC3)ccc2c1` — what was its solubility?
Reply text: > 5000 µg/mL
